Taken from ChEMBL document CHEMBL1144830.

Target: Steroidogenic factor 1 (Homo sapiens, UniProt Q13285)
Sequence (Q13285 whole entry): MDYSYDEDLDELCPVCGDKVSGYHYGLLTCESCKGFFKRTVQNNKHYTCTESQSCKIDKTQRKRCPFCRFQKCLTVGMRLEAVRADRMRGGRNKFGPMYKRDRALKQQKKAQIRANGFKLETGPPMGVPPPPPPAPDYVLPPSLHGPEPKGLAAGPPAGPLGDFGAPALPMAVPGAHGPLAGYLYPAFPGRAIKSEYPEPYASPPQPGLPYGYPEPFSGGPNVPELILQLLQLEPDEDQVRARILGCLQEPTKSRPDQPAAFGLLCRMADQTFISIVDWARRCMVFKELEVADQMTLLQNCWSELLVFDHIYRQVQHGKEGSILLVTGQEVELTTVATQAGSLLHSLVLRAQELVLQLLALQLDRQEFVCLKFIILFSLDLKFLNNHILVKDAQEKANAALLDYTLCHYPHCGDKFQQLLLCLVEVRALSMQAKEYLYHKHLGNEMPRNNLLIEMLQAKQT

{"compound": "CCCCOc1cccc2c(=O)n(CC(=O)Nc3ccc4c(c3)OCCO4)ccc12", "IC50 (nM)": 13700}
{"compound": "CCOC(=O)C(C)Oc1cccc2c(=O)n(CC(=O)NCc3ccc(F)cc3)ccc12 (centres undefined)", "IC50 (nM)": 680}
{"compound": "CCOC(=O)C(C)Oc1cccc2c(=O)n(CC(=O)N(C)c3ccc4c(c3)OCCO4)ccc12 (centres undefined)", "IC50 (nM)": 3570}
{"compound": "CCOC(=O)C(C)Oc1cccc2c(=O)n(CC(=O)Nc3ccc(OCC)cc3)ccc12 (centres undefined)", "IC50 (nM)": 190}

----------
These records show IC50 for Steroidogenic factor 1 (Homo sapiens, UniProt Q13285).
reportedProperty: IC50 (nM)

{"compound": "CCOC(=O)C(C)Oc1cccc2c(=O)n(CC(=O)Nc3ccc(CC)cc3)ccc12 (stereo not given)", "reportedProperty": "IC50", "number": 110}
{"compound": "CCCCc1ccc(NC(=O)Cn2ccc3c(OC(C)C(=O)OCC)cccc3c2=O)cc1 (stereo not given)", "reportedProperty": "IC50", "number": 360}
{"compound": "CCOC(=O)C(C)(C)Oc1cccc2c(=O)n(CC(=O)Nc3ccc4c(c3)OCCO4)ccc12", "reportedProperty": "IC50", "number": 590}
{"compound": "CCOC(=O)C(C)Oc1cccc2c(=O)n(CCC(=O)Nc3ccc4c(c3)OCCO4)ccc12 (stereo not given)", "reportedProperty": "IC50", "number": 8460}
{"compound": "CCOC(=O)C(C)Oc1cccc2c(=O)n(CC(=O)Nc3ccc(C)cc3)ccc12 (stereo not given)", "reportedProperty": "IC50", "number": 340}

----------
In this section, each of the compounds is paired with its reported pIC50.
Molecular target: Nuclear receptor ROR-alpha (Homo sapiens, UniProt P35398)
Sequence (P35398 whole entry): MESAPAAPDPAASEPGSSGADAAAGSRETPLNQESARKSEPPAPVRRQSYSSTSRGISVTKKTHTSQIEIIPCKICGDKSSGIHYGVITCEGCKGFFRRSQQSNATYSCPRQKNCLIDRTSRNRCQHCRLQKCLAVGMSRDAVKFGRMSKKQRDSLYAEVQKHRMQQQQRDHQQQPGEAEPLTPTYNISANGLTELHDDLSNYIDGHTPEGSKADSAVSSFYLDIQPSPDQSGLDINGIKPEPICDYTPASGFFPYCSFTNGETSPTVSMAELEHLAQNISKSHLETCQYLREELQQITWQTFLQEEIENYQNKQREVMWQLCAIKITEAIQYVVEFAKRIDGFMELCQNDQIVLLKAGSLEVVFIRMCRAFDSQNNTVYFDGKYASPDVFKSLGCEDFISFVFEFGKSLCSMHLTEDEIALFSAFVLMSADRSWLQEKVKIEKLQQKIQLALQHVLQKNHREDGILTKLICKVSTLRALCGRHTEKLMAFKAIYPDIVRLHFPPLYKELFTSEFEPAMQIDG
pIC50: −log10 of the molar value.

{"compound": "CCCCOc1cccc2c(=O)n(CC(=O)Nc3ccc4c(c3)OCCO4)ccc12", "pIC50": 4.67}
{"compound": "CCOC(=O)C(C)Oc1cccc2c(=O)n(CC(=O)Nc3ccc(OCC)cc3)ccc12 (stereo not drawn)", "pIC50": 4.65}
{"compound": "CCOC(=O)C(C)Oc1cccc2c(=O)n(CC(=O)NCc3ccccc3)ccc12 (stereo not drawn)", "pIC50": 5.49}

----------
In this section, each of the compounds is paired with its reported pIC50.
Experiment: Inhibition of HSV1 GAL4-tagged VP16 by luciferase assay
pIC50: −log10 of the molar value.
reportedProperty: pIC50

{"compound": "CCOC(=O)C(C)Oc1cccc2c(=O)n(CC(=O)Nc3ccc4c(c3)OCCO4)ccc12 (configuration not stated)", "result": "< 4.48"}
{"compound": "CCOC(=O)C(C)Oc1cccc2c(=O)n(CC(=O)Nc3ccc(CC)cc3)ccc12 (configuration not stated)", "result": "< 4.48"}
{"compound": "CCOC(=O)C(C)Oc1cccc2c(=O)n(CC(=O)Nc3ccc(OCC)cc3)ccc12 (configuration not stated)", "result": 4.62}
{"compound": "CCOC(=O)C(C)Oc1cccc2c(=O)n(CC(=O)Nc3ccc(C)cc3)ccc12 (configuration not stated)", "result": "< 4.48"}
{"compound": "CCOC(=O)C(C)Oc1cccc2c(=O)n(CC(=O)NCc3ccc4c(c3)OCO4)ccc12 (configuration not stated)", "result": "< 4.48"}
{"compound": "CCCCOc1cccc2c(=O)n(CC(=O)Nc3ccc4c(c3)OCCO4)ccc12", "result": 4.62}
{"compound": "CCOC(=O)C(C)(C)Oc1cccc2c(=O)n(CC(=O)Nc3ccc4c(c3)OCCO4)ccc12", "result": "< 4.48"}
